Assay: Toxicity liver stage against HepG2, at 10uM
Assay type: cell-based
Design: test concentration 10 uM, cell line HepG2-A16-CD81EGFP
Settings: human, HepG2-A16-CD81EGFP cells; read-out: INHIBITION
Quick reference for cytotoxicity at 10 µM among some molecules
Please state the value followed by its unit.

Previously resolved entries follow.
Molecule: CN(C)Cc1cc(C2CCCCN2S(=O)(=O)Cc2ccccc2)nn1C (stereo unspecified)
cytotoxicity at 10 µM: 0.57%
//
Molecule: COc1ccc2c(c1)C(C(=O)N(C)CCc1cnn(C)c1)CC(=O)N2 (stereo unspecified)
cytotoxicity at 10 µM: -57.2%
//
Molecule: Cc1cccc(CCC(=O)NCC2CCCN2c2cccnn2)c1 (stereo unspecified)
cytotoxicity at 10 µM: -3.96%

IN: Please report cytotoxicity at 10 µM for the following molecule: CC1(C)CN(CC(O)C(C)(C)C)C(=O)CN(C(=O)c2ccccc2)C1 (stereo unspecified)
OUT: -6.87%

IN: Give the measured cytotoxicity at 10 µM for CCc1ccc(C(C)NC(=O)N2CCC(n3cncn3)CC2)cc1 (stereo unspecified)
OUT: -8.18%

IN: Name the recorded cytotoxicity at 10 µM of the item COc1ccc(CNC(=O)Nc2ccc(=O)n(C)c2)cc1 in your answer.
OUT: 1.92%

IN: Specify reported cytotoxicity at 10 µM for the molecule shown: c1csc(CN2CC[C@H]3O[C@@H](COCC4CC4)CC[C@H]32)c1
OUT: -74.8%

IN: Determine from records and report cytotoxicity at 10 µM for CCc1[nH]ncc1C(=O)N1CCCC(n2ccnc2C)C1 (stereo unspecified)
OUT: -10.5%

###

Assay: Toxicity liver stage against HepG2, at 10uM
Format: cell-based
Parameters: test concentration 10 uM, cell line HepG2-A16-CD81EGFP
Details: human, HepG2-A16-CD81EGFP cells; read-out: INHIBITION
Value kind: cytotoxicity at 10 µM (%)
Write the value in % as a bare number.

Example entries and their recorded answers appear below.
Molecule: CN(C)[C@H]1CCCCN(Cc2cnc(NCc3ccccc3)nc2)C1
cytotoxicity at 10 µM (%): 0.166
--
Molecule: Cc1cc(S(=O)(=O)N2C[C@H](C3CC3)[C@@H](N)C2)c(C)s1
cytotoxicity at 10 µM (%): -2.36
--
Molecule: CN(Cc1cccc(O)c1)Cc1cnn(C)c1
cytotoxicity at 10 µM (%): -0.198
--
Molecule: COc1ccccc1OCC(=O)NS(=O)(=O)c1ccc(C)s1
cytotoxicity at 10 µM (%): -12.7
--
Molecule: Cn1cccc1C(=O)N1C[C@H]2CN(Cc3cccs3)C[C@H]2C1
cytotoxicity at 10 µM (%): 2.02

IN: Please supply the value of reported cytotoxicity at 10 µM for the item CC(C)Oc1ccccc1OCCN1C(=O)CCNC1=O
OUT: -6.67

IN: Recall and state the measured cytotoxicity at 10 µM for Fc1ccccc1Cc1noc(CN2CC[C@@H]3CCCC[C@H]3C2)n1 .
OUT: -6.1

IN: Read off the recorded cytotoxicity at 10 µM for CN(CC(=O)N(C)C1CC1)C1CCN(c2ccc(Cl)cc2)CC1
OUT: 0.153

IN: Give recorded cytotoxicity at 10 µM. Cn1cc(N2CC3(CCN(CC4CCC4)CC3)OCC2=O)cn1
OUT: -0.269

IN: For the molecule O=C1NCCCCC1NC(=O)C1(c2ccc3c(c2)OCCO3)CCCC1 (stereo unspecified) , give its measured cytotoxicity at 10 µM value.
OUT: 0.969

IN: Look up and state reported cytotoxicity at 10 µM for O=C(c1ccc(Cl)c(Cl)c1)N1CCCCC1C1OCCO1 (stereo unspecified)
OUT: 9.25
